measured.target: Bub1(1–553)/Bub3 complex (3×FLAG–Bub1(1–553) with untagged Bub3) (UniProt O43683 1-553; O43684 1-328)
Sequence (O43683 1-553, chain 1 of 2): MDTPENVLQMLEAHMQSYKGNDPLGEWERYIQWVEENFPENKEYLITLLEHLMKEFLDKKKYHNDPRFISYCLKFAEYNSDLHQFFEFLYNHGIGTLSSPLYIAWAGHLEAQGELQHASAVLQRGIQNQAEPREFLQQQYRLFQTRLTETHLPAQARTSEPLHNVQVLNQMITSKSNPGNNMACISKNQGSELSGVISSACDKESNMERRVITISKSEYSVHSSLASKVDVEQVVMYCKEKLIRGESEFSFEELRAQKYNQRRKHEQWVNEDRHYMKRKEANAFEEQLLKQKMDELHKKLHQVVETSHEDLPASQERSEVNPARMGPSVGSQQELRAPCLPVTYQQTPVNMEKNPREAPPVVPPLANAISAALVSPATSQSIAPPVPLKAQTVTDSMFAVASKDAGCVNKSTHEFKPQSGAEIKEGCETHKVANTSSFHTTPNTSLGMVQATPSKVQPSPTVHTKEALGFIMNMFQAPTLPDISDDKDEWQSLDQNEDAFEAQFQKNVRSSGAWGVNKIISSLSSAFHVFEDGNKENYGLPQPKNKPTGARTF
Sequence (O43684 whole entry, chain 2 of 2): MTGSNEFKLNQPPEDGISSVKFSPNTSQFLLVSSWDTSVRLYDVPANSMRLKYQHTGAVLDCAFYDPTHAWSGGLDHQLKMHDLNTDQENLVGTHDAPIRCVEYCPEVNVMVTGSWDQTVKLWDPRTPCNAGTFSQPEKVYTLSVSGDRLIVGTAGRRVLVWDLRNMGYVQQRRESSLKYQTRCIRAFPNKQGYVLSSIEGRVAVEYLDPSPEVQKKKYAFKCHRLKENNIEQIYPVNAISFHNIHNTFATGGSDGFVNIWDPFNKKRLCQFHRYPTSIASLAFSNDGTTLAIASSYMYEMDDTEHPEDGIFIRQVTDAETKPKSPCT
test.summary: MST
assay.readout: Kd (nM)
Answers are plain numbers, in nM.

Challenge: Tell me the measured Kd of EDDKNDMDITKSYTIEIN (N-terminal Btn-PEG2-C-PEG2 (biotin, PEG2, cysteine, PEG2); Nle (norleucine) at position 7 of the letters, written here as M; phosphothreonine (Tp) at position 10 of the letters (MDIT); C-terminal amide) [MELT12p peptide (MDIT phosphorylated), Btn-PEG2-C-PEG2-EDDKND-Nle-DI-Tp-KSYTIEIN-amide] , please.
Response given: 579
